Tested on: panel of 140 standard cancer cell lines
experiment: ProliFiler-140 cancer cell line screen (CellTiterGlo, 72 h)
Assay type: cell-based
condition label: SK-N-MC (Brain); read-out: IC50 [M] (ProliFiler-140)
measurement kind: IC50

Q: Would you please give the reported IC50 of COc1cc2cc(C(=O)N3C[C@@H](CCl)c4c3cc(OC(=O)N(CCC(=O)N3CCN(C)CC3)[C@H]3CCSSC3)c3ccccc43)[nH]c2c(OC)c1OC with panel of 140 standard cancer cell lines?
A: 2.7e-09 M

###

Test system: panel of 140 standard cancer cell lines
experiment: ProliFiler-140 cancer cell line screen (CellTiterGlo, 72 h)
Assay type: cell-based
condition label: read-out: IC50 [M] (ProliFiler-140), PC-9 (Lung)
Protocol: Incubations were performed for 72 h before automated viability readout with CellTiterGlo (Figure 8). End of Figure S11 (part 5 of 5): ProliFiler-140 cancer cell line screening for cytotoxicity of the prodrugs. 8-data-point dose response curves from CellTiter-Glo® viability readout. ProliFiler-140 cell line panel part V
measurement kind: IC50 (M)
A number alone suffices; assume M.

Q: Identify measured IC50 corresponding to COc1cc2cc(C(=O)N3C[C@@H](CCl)c4c3cc(OC(=O)N3CCN(C(=O)CCC(=O)N5CCN(C)CC5)[C@H]5CSSC[C@H]53)c3ccccc43)[nH]c2c(OC)c1OC [P-SS66C-CBI-TMI]
A: 1.4e-08

###

Test system: panel of 140 standard cancer cell lines
experiment: ProliFiler-140 cancer cell line screen (CellTiterGlo, 72 h)
Format: cell-based
condition label: Homo sapiens, U-118-MG, read-out: IC50 [M] (ProliFiler-140), U118MG (Brain)
measurement kind: IC50 (M)
A number alone suffices; assume M.

Q: Identify measured IC50 corresponding to COc1cc2cc(C(=O)N3C[C@@H](CCl)c4c3cc(OC(=O)N3CCN(C(=O)CCC(=O)N5CCN(C)CC5)[C@H]5CSSC[C@H]53)c3ccccc43)[nH]c2c(OC)c1OC [P-SS66C-CBI-TMI]
A: 1.86e-07

###

System: NCI-60 standardized human tumor cell line panel
experiment: cells
Format: cell-based
condition label: OVCAR-8 (OV) cell line; log10 of GI50 in M
measurement kind: NCI-60 screening: Log(GI50)
Just the number, please.

>  <compound>
COc1cc2cc(C(=O)N3CC(CCl)c4c3cc(OC(=O)N3CCN(C)C5CSSCC53)c3ccccc43)[nH]c2c(OC)c1OC (mixture of isomers) [Me-SS66C-CBI-TMI]

>  <measurement kind>
NCI-60 screening: Log(GI50)

>  <experimental result>
-6.82

$$$$

Q: Identify measured NCI-60 screening: Log(GI50) corresponding to COc1cc2cc(C(=O)N3C[C@@H](CCl)c4c3cc(OC(=O)N(CCC(=O)N3CCN(C)CC3)[C@H]3CCSSC3)c3ccccc43)[nH]c2c(OC)c1OC
A: -6.73

Q: Identify measured NCI-60 screening: Log(GI50) corresponding to COc1cc2cc(C(=O)N3C[C@@H](CCl)c4c3cc(OC(=O)N(CCC(=O)N3CCN(C)CC3)C3CCCCC3)c3ccccc43)[nH]c2c(OC)c1OC
A: -5.78

Q: Identify measured NCI-60 screening: Log(GI50) corresponding to COc1cc2cc(C(=O)N3CC(CCl)c4c3cc(OC(=O)N3CCN(C)C5CSSCC53)c3ccccc43)[nH]c2c(OC)c1OC (mixture of isomers) [Me-SS66T-CBI-TMI]
A: -8.06
